Method: Organ distribution of lenvatinib in rats with or without liver RT
Format: in vivo, Sprague-Dawley rats
Experimental Conditions: Sprague-Dawley, rat, spleen, po, 3 mg/kg, Concentration of lenvatinib in spleen, 3 mg/kg p.o., 6 h after administration, RT2Gy followed by lenvatinib
Reported Metric: concentration at 6 h (ng/mL)
Dear colleague, please return just the value in ng/mL, with no unit written.

What value of concentration at 6 h has been recorded for this entry: `COc1cc2nccc(Oc3ccc(NC(=O)NC4CC4)c(Cl)c3)c2cc1C(N)=O`
73

====

Method: Organ distribution of lenvatinib in rats with or without liver RT
Type: in vivo, Sprague-Dawley rats
Experimental Conditions: Sprague-Dawley, rat, liver, po, 3 mg/kg, Concentration of lenvatinib in liver, 3 mg/kg p.o., 6 h after administration, RT2Gy concurrent with lenvatinib
Reported Metric: concentration at 6 h (ng/mL)
Reply with just the number (in ng/mL).

Query (compound): COc1cc2nccc(Oc3ccc(NC(=O)NC4CC4)c(Cl)c3)c2cc1C(N)=O [lenvatinib, Lenvatinib] ; field requested: concentration at 6 h
72

====

Method: Organ distribution of lenvatinib in rats with or without liver RT
Assay type: in vivo, Sprague-Dawley rats
Experimental Conditions: Sprague-Dawley, rat, spleen, po, 3 mg/kg, Concentration of lenvatinib in spleen, 3 mg/kg p.o., 6 h after administration, lenvatinib only
Reported Metric: concentration at 6 h (ng/mL)
Give the quantity in ng/mL, number only.

# lookup: concentration at 6 h of `COc1cc2nccc(Oc3ccc(NC(=O)NC4CC4)c(Cl)c3)c2cc1C(N)=O`
30

====

Method: Organ distribution of lenvatinib in rats with or without liver RT
Type: in vivo, Sprague-Dawley rats
Experimental Conditions: Sprague-Dawley, rat, kidney, po, 3 mg/kg, Concentration of lenvatinib in kidney, 3 mg/kg p.o., 6 h after administration, RT9Gy followed by lenvatinib
Reported Metric: concentration at 6 h (ng/mL)
// units = ng/mL; emit number, no label

// returns reported concentration at 6 h for input `COc1cc2nccc(Oc3ccc(NC(=O)NC4CC4)c(Cl)c3)c2cc1C(N)=O`
223

====

Method: Organ distribution of lenvatinib in rats with or without liver RT
Assay type: in vivo, Sprague-Dawley rats
Experimental Conditions: Sprague-Dawley, rat, kidney, po, 3 mg/kg, Concentration of lenvatinib in kidney, 3 mg/kg p.o., 6 h after administration, lenvatinib only
Reported Metric: concentration at 6 h (ng/mL)
Write the number in ng/mL without appending the unit.

I am curious: what concentration at 6 h value has been reported for `COc1cc2nccc(Oc3ccc(NC(=O)NC4CC4)c(Cl)c3)c2cc1C(N)=O` ?
175

====

Method: Organ distribution of lenvatinib in rats with or without liver RT
Type: in vivo, Sprague-Dawley rats
Experimental Conditions: Sprague-Dawley, rat, liver, po, 3 mg/kg, Concentration of lenvatinib in liver, 3 mg/kg p.o., 6 h after administration, lenvatinib only
Reported Metric: concentration at 6 h (ng/mL)
Hi! Could you send only the number? It should be in ng/mL, unit omitted.

So what's the measured concentration at 6 h for this one? `COc1cc2nccc(Oc3ccc(NC(=O)NC4CC4)c(Cl)c3)c2cc1C(N)=O`
104

====

Method: in vivo
Parameters: species or system Sprague-Dawley rats
Experimental Conditions: Sprague-Dawley, rat, po, 3 mg/kg
Reported Metric: concentration at 60 min (ng/mL)
Give a bare numeral; the unit ng/mL is implied.

For the compound `COc1cc2nccc(Oc3ccc(NC(=O)NC4CC4)c(Cl)c3)c2cc1C(N)=O` , what concentration at 60 min is on record?
940
